Biological target: T1, human plasma kallikrein (human, UniProt P03952 20-390; P03952 391-638)
T1 construct: also called pKal; Human pKal
T1 sequence (P03952 20-390, chain 1 of 2): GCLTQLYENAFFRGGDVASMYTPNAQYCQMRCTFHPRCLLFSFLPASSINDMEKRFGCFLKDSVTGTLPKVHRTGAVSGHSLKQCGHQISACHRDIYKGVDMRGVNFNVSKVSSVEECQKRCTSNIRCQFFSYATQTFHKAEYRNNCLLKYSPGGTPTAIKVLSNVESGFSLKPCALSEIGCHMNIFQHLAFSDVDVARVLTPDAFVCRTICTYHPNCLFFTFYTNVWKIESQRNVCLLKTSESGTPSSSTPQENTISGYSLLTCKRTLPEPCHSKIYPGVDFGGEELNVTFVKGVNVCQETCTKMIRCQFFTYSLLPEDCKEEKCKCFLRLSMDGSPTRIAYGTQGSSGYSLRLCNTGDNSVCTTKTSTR
T1 sequence (P03952 391-638, chain 2 of 2): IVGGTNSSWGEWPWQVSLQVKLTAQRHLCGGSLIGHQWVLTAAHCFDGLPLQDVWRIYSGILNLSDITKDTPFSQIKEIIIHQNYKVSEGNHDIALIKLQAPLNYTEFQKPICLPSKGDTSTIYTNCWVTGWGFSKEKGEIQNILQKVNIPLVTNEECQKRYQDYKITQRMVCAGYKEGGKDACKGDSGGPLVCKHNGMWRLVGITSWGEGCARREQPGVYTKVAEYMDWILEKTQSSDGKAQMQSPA
Assay: ELISA, biotinylated pKal signal over streptavidin background
quantity_kind: ELISA (T/B)
Only the number, expressed in T/B, is required.

1) M11-G12 (Fab, V domains shown, HC as printed runs into CH1) VH: EVQLLESGGGLVQPGGSLRLSCAASGFTFSQYPMNWVRQAPGKGLEWVSSISSSGGFTTYADSVKGRFTISRDNSKNTLYLQMNSLRAEDTAVYYCAREEQQGGFDYWGQGTLVTVSS VL: DIQMTQSPSSLSAFVGDRVSITCRASQTISVYVNWYQHKSGQAPKLLIYGASSLQSGVPSRFSGSGSGTDFTLTISSLQPEDFATYFCQQSYSIPFTFGGGTDVQIR ... 4.9
2) M6-G05 (Fab, V domains shown, HC as printed runs into CH1) VH: EVQLLESGGGLVQPGGSLRLSCAASGFTFSRYRMVWVRQAPGKGLEWVSSIYPSGGMTAYADSVKGRFTISRDNSKNTLYLQMNSLRAEDTAVYYCARDAVGIGDAFDIWGQGTMVTVSS VL: DIQMTQSPSSLSASVGDRVTITCRASQSISTYLNWYQLKPGKAPKLLIYNAFSMERGVPSTISGSGSGTDFTLTISSLQPEDFATYYCQQSYTTPTTFGQGTKVEIK ... 18.5
3) M12-C10 (Fab, V domains shown, HC as printed runs into CH1) VH: EVQLLESGGGLVQPGGSLRLSCAASGFTFSDYEMHWVRQAPGKGLEWVSGISPSGGKTQYADSVKGRFTISRDNSKNTLYLQMNSLRAEDTAVYYCARDLKWGGRGSPDWYFDLWGRGTLVTVSS VL: QSALTQPPSVSVSPGQTASITCSGDKLGEKYVSWYQQKPGQSPVVVIYQDNKRPSGIPERFSGSNSGNTATLTISGTQAVDEADYYCQAWDSYTVVFGGGSKLTVLG ... 8.3
4) M29-D10 (Fab, V domains shown, HC as printed runs into CH1) VH: EVQLLESGGGLVQPGGSLRLSCAASGFTFSWYPMYWVRQAPGKGLEWVSSIGSSGGPTPYADSVKGRFTISRDNSKNTLYLQMNSLRAEDTAVYYCARWADYGGSLDYWGQGTLVTVSS VL: DIQMTQSPSSLSASVGDTVSITCRASQSITIYLNWYQHKPGKAPNLLIYGASNLHSGVPSRFSGSGSGTDFTLTISSLQPEDFATYYCQQSYDTPLTFGGGTKVEIK ... 23.6

Continue with the next binder.
Ask: State the recorded ELISA (T/B) for this entry: M76-D01 (Fab, V domains shown, HC as printed runs into CH1 (ends APSPKS as printed)) VH: EVQLLESGGGLVQPGGSLRLSCAASGFTFSFYAMHWVRQAPGKGLEWVSGIVPSGGRTHYADSVKGRFTISRDNSKNTLYLQMNSLRAEDTAVYYCATDSSGSPNPLFDYWGQGTLVTVSS VL: DIVMTQTPPSLPVNPGEPASISCRSSQSLSDDGNTYLDWYLQRPGQSPQLLIHTLSYRASGVPDRFSGSGSGTDFTLKISRVEAEDVGVYYCMQGTHWPPTFGQGTKVEIK
Reply: 11.2
